Reported pIC50 values for a set of compounds
# experimental_target: full-length beta-Catenin (Uniprot ID P35222) (Homo sapiens)
# Construct: 10 nM full-length beta-Catenin (Uniprot ID P35222)
# Sequence (P35222 1-781): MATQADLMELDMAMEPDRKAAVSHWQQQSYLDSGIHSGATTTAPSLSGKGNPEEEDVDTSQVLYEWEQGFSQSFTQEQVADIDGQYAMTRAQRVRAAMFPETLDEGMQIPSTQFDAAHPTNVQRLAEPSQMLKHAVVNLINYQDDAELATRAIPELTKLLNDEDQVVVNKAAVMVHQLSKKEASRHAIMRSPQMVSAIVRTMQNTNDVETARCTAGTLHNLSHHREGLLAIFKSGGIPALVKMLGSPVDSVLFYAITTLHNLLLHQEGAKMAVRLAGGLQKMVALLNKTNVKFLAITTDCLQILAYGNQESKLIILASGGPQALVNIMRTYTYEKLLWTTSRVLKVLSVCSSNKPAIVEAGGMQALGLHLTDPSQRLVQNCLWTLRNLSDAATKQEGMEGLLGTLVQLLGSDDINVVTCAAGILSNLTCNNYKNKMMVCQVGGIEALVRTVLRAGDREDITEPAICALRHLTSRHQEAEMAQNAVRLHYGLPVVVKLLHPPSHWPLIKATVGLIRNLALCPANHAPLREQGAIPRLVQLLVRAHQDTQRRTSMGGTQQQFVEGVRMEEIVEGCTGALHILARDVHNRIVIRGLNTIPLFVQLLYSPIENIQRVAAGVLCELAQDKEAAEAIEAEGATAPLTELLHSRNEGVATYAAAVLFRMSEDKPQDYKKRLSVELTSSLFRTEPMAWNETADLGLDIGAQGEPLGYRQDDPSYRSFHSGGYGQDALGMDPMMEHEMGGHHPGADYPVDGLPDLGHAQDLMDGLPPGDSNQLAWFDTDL
# assay_method_text: Fluorescence polarization IC50 (beta-catenin / 5FAM-TCF4 10-53 competition)
# Format: binding
# particulars: fluorescence polarization; read-out: beta-Catenin FP IC50
// pIC50 is dimensionless: -log10 of concentration (M)

As a guide, the following entries are already answered.
[
  {
    "compound": "CC(=O)N1CCC[C@]12CCCCCCC1(CCCCCCCCOC(=O)N3CC[C@@](C(=O)N[C@@H](Cc4ccsc4)C(=O)N[C@@H](Cc4csc5ccccc45)C(=O)N[C@@H](CC(C)C)C(N)=O)(C3)NC(=O)[C@H]([C@@H](C)O)NC(=O)[C@H](Cc3ccccc3)NC(=O)[C@H](C)NC(=O)[C@H](C)NC(=O)[C@H](CN(CC(=O)O)CC(F)(F)F)NC(=O)[C@H](CC(=O)O)NC1=O)NC(=O)[C@H](CC(C)(C)C)NC(=O)[C@H](CC(=O)O)NC2=O (some centres unmarked)",
    "pIC50": 6.18
  },
  {
    "compound": "CCCC[C@@H]1NC(=O)[C@H](Cc2cccc(C(=O)O)c2)NC(=O)[C@H](CC(=O)O)NC(=O)C2(CCCC=CCCCOC(=O)N3CC[C@@](C(=O)N[C@@H](Cc4ccsc4)C(=O)N[C@@H](Cc4csc5ccccc45)C(=O)N[C@@H](CC(C)(C)C)C(N)=O)(C3)NC(=O)[C@H](CC(C)C)NC(=O)[C@H](Cc3ccccc3)NC(=O)[C@H](C)NC1=O)CCCC=CC[C@]1(CCCN1C(C)=O)C(=O)N[C@@H](CC(=O)O)C(=O)N[C@@H](CC(C)(C)C)C(=O)N2 (some centres unmarked)",
    "pIC50": 6.79
  },
  {
    "compound": "CC(=O)N1CCC[C@]12CC=CCCCC1(CCCC=CCCCCCC[C@@](C)(C(=O)N[C@@H](Cc3ccsc3)C(=O)N[C@@H](Cc3csc4ccccc34)C(=O)N[C@@H](CCC(N)=O)C(N)=O)NC(=O)[C@H](CC(C)C)NC(=O)[C@H](Cc3ccccc3)NC(=O)[C@H](C)NC(=O)[C@H](C)NC(=O)[C@H](CC(=O)O)NC(=O)[C@H](CC(=O)O)NC1=O)NC(=O)[C@H](CC(C)(C)C)NC(=O)[C@H](CC(=O)O)NC2=O (some centres unmarked)",
    "pIC50": 7.65
  },
  {
    "compound": "CC(=O)N1CCC[C@]12CC=CCCCC1(CCCC=CCCCOC(=O)N3CC[C@@](C(=O)N[C@@H](Cc4ccsc4)C(=O)N[C@@H](Cc4csc5ccccc45)C(=O)N[C@@H](CCC(N)=O)C(N)=O)(C3)NC(=O)[C@H](CC(C)C)NC(=O)[C@H](Cc3ccccc3)NC(=O)[C@H](C)NC(=O)[C@H](C)NC(=O)[C@H](Cc3c(F)c(F)c(F)c(F)c3F)NC(=O)[C@H](CC(=O)O)NC1=O)NC(=O)[C@H](CC(C)(C)C)NC(=O)[C@H](CC(=O)O)NC2=O (some centres unmarked)",
    "pIC50": 6.03
  }
]

// pIC50 lookup, compound = CC(=O)N1CCC[C@]12CC=CCCCC1(CCCC=CCCCOC(=O)N3CC[C@@](C(=O)N[C@@H](Cc4ccsc4)C(=O)N[C@@H](Cc4csc5ccccc45)C(=O)N[C@@H](CC(N)=O)C(N)=O)(C3)NC(=O)[C@H](CC(C)C)NC(=O)[C@H](Cc3ccccc3)NC(=O)[C@H](C)NC(=O)[C@H](C)NC(=O)[C@H](Cc3cccc(C(=O)O)c3)NC(=O)[C@H](CC(=O)O)NC1=O)NC(=O)[C@H](CC(C)(C)C)NC(=O)[C@H](CC(=O)O)NC2=O (some centres unmarked) , result: 8.10
